- measurement.target: μ-opioid receptor (Homo sapiens)
- Construct: b235 lists HEK-293, CHO or U-2 OS)
- Sequence (P35372 whole entry, species assumed): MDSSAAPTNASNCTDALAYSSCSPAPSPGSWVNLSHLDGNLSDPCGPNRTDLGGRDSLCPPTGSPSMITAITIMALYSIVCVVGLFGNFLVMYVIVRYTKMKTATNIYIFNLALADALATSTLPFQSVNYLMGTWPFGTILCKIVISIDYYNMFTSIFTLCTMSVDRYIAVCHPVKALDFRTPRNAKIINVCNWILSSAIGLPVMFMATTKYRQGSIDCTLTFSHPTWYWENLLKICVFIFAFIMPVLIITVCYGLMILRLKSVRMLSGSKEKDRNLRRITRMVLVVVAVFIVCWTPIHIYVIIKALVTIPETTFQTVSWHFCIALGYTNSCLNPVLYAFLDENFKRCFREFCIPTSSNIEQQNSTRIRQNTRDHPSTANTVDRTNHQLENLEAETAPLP
- procedure.summary: μ-opioid receptor [35S]GTPγS functional assay
- Protocol: [^35S]GTPγS functional assays were conducted using freshly thawed μ-receptor membranes prepared in-house from a cell line expressing recombinant t opioid receptor in a HEK-293, CHO or U-2 OS cell background, or purchased from a commercial source (Perkin Elmer, Shelton, Conn.; or DiscovRx, Fremont, Calif.). […] BetaScint scintillation cocktail (Perkin Elmer, Shelton, Conn.) was added (50 μl/well) and plates were counted using a Packard Top-Count for 1 min/well. […]
quantity.kind: EC50

Task: // lookup EC50 for CN1CC[C@]23Cc4[nH]c(=O)c(C(=O)N5[C@@H]6CC[C@H]5C[C@@H](O)C6)cc4C[C@H]2[C@H]1Cc1ccc(O)cc13 [Compound 17]
Output: 0.24 µM

Task: Entry under review: COc1ccc2c(c1)[C@]13CCN(C(=O)OC(C)(C)C)[C@H](C2)[C@]1(O)Cc1cc(C(=O)O)c(=O)[nH]c1C3 [Compound 20] . Reported EC50?
Output: > 20 µM

Task: Which EC50 is reported for this molecule? COC(=O)c1cc2c([nH]c1=O)C[C@]13CCN[C@H](Cc4ccc(OC)cc41)[C@]3(O)C2 [Compound 4]
Output: > 20 µM
